- ASSAY TARGET: Cytochrome P450 1A2 (Homo sapiens)
- Sequence (P05177 whole entry): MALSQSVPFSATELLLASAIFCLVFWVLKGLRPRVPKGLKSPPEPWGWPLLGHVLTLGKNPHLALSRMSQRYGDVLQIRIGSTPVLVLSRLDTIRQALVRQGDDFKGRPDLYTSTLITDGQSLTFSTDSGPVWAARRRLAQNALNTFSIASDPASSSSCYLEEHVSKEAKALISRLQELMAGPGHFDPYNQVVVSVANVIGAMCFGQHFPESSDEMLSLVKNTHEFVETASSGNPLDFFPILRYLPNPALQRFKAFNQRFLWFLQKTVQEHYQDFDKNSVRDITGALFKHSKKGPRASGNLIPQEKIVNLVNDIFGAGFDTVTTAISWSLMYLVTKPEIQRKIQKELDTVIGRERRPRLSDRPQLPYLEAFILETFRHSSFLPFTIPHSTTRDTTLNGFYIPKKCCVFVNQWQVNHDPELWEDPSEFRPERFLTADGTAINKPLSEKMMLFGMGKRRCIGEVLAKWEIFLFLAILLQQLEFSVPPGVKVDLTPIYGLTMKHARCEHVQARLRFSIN
pIC50: −log10 of the molar value.
MEASUREMENT LABEL: pIC50

The value of pIC50 measured for the compound `CN(C)C(=O)c1ccc(N(Cc2cc(Br)cs2)C(=O)c2ccc(O)cc2O)cc1` turned out to be < 4.70
